meta.source: patent US8338472B2

Assayed target: Glucocorticoid Receptor (Homo sapiens, UniProt P04150)
Construct: These cells express large amount of the GR and are very responsive to GC treatment; endogenous in cells; host or cells: A549 cells transiently transfected with the MMTV-LUC reporter
Sequence (P04150 whole entry): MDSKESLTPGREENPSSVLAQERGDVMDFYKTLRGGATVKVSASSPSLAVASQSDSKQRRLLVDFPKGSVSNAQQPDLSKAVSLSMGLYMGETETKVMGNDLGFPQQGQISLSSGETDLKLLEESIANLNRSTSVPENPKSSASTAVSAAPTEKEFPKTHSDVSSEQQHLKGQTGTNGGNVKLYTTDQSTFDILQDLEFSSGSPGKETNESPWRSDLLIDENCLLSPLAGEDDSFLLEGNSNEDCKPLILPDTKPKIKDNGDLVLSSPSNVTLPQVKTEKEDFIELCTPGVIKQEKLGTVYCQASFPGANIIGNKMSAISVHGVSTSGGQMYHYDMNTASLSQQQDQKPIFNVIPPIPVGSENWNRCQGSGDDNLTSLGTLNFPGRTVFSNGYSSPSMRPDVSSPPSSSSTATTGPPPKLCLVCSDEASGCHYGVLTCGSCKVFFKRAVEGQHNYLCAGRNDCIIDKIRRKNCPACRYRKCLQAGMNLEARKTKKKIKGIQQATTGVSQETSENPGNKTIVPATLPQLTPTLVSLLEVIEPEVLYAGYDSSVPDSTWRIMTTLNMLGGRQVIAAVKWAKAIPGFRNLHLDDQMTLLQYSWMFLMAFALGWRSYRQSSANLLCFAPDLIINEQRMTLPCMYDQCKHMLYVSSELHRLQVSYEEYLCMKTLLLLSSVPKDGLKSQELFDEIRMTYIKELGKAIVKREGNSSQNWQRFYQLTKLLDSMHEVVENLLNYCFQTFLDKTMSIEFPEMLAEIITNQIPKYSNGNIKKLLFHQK
Method: Trans-Activation Modulation of Glucocorticoid Receptor (GRAMMER), MMTV-LUC reporter gene in A549 cells
Type: cell-based
Condition parameters: inflection point; A549 cells; Table 1; read-out: Transactivation A549 Cells GRAMMER IP
Recorded endpoint: pEC50
When answering, recall that pEC50 equals minus log10 of the concentration in mol/L, and write that number alone.

// below: answered molecules
{"Molecule": "C[C@]12Cc3cnn(-c4ccc(F)cc4)c3C=C1CC[C@@H]2C(=O)N(CCO)CCc1ccccc1", "pEC50": 5.58}
{"Molecule": "CC(C)CN(C)C(=O)[C@H]1CCC2=Cc3c(cnn3-c3ccc(F)cc3)C[C@@]21C", "pEC50": 5.90}
{"Molecule": "C[C@]12Cc3cnn(-c4ccc(F)cc4)c3C=C1CC[C@@H]2C(=O)N(CC1CCC1)CC1CCCO1 (some centres unmarked)", "pEC50": 6.17}
{"Molecule": "C[C@]12Cc3cnn(-c4ccc(F)cc4)c3C=C1CC[C@@H]2C(=O)N(Cc1ccc(Cl)cc1Cl)CC1CC1", "pEC50": 5.86}
{"Molecule": "C[C@]12Cc3cnn(-c4ccc(F)cc4)c3C=C1CC[C@@H]2C(=O)N(CCC#N)C1CC1", "pEC50": 5.85}

Form field: pEC50 recorded for C[C@]12Cc3cnn(-c4ccc(F)cc4)c3C=C1CC[C@@H]2C(=O)N(CCO)Cc1cc(F)cc(F)c1 with Glucocorticoid Receptor (Homo sapiens, UniProt P04150) (enter value)
6.06

Reported pEC50 for Glucocorticoid Receptor (Homo sapiens, UniProt P04150), given CCNC(=O)CN(CCc1ccccc1)C(=O)[C@H]1CCC2=Cc3c(cnn3-c3ccc(F)cc3)C[C@@]21C ?
6.21

API: value(readout= pEC50, system= Glucocorticoid Receptor (Homo sapiens, UniProt P04150), query= CC(C)CN(CC(O)C(F)(F)F)C(=O)[C@H]1CCC2=Cc3c(cnn3-c3ccc(F)cc3)C[C@@]21C (some centres unmarked) )
6.64

Lab request: please report pEC50 under test system Glucocorticoid Receptor (Homo sapiens, UniProt P04150) for C[C@]12Cc3cnn(-c4ccc(F)cc4)c3C=C1CC[C@@H]2C(=O)N(CCO)c1ccccc1
6.89

Write down the reported pEC50 of CCCCN(CC(C)O)C(=O)[C@H]1CCC2=Cc3c(cnn3-c3ccc(F)cc3)C[C@@]21C (some centres unmarked) , test system: Glucocorticoid Receptor (Homo sapiens, UniProt P04150).
6.97

----------
Assayed target: human GR (Homo sapiens, UniProt P04150)
Construct: U937 cells contain an endogenous glucocorticoid receptor (GR); endogenous in cells; host or cells: U937 cells stably transfected with the TNF-alpha promoter/beta-lactamase reporter
Sequence (P04150 whole entry): as above
Method: Transrepression Assay (GITAR), TNFα-β-lactamase reporter gene in U937 cells
Type: cell-based
Condition parameters: U-937, text statement; 100 nM dexamethasone = 100%; read-out: maximal activity in the transrepression assay (GITAR)
Below is a list of entries, each paired with its recorded Emax value.

The cases that follow already have their Emax on record.
{"Molecule": "CN(CCC(F)(F)F)C(=O)[C@H]1CCC2=Cc3c(cnn3-c3ccc(F)cc3)C[C@@]21C", "Emax": "> 5%"}
{"Molecule": "CN(C(=O)[C@H]1CCC2=Cc3c(cnn3-c3ccc(F)cc3)C[C@@]21C)C1CCCCC1", "Emax": "> 5%"}

Can you share its Emax? I mean this molecule: C[C@]12Cc3cnn(-c4ccc(F)cc4)c3C=C1CC[C@@H]2C(=O)N1CCCC1CCc1ccccc1 (stereo partly shown)
> 5%

Need Emax of C[C@]12Cc3cnn(-c4ccc(F)cc4)c3C=C1CC[C@@H]2C(=O)N(CCO)CC(=O)c1coc2ccccc12 , thanks.
> 5%

Consider the molecule shown here: C[C@]12Cc3cnn(-c4ccc(F)cc4)c3C=C1CC[C@@H]2C(=O)N(CCc1ccccc1)Cc1ccccc1 What is its recorded Emax?
> 5%

# lookup: Emax of CCCN(CC(O)C(F)(F)F)C(=O)[C@H]1CCC2=Cc3c(cnn3-c3ccc(F)cc3)C[C@@]21C (stereo partly shown)
> 5%

Please report the recorded Emax for COc1ccccc1CN(C)C(=O)[C@H]1CCC2=Cc3c(cnn3-c3ccc(F)cc3)C[C@@]21C .
> 5%

----------
Assayed target: Glucocorticoid Receptor (Homo sapiens)
Construct: These cells express large amount of the GR and are very responsive to GC treatment; endogenous in cells; host or cells: A549 cells transiently transfected with the MMTV-LUC reporter
Method: Trans-Activation Modulation of Glucocorticoid Receptor (GRAMMER), MMTV-LUC reporter gene in A549 cells
Assay type: cell-based
Condition parameters: A549 cells; Emax relative to 300 nM dexamethasone; Table 1
Procedure: Trans-Activation Modulation of Glucocorticoid Receptor (GRAMMER) […] The routine transient assay consists of plating 7,000-25,000 cells/well of a white, clear-bottom 96-well plate. […] The cells are trypsinized and counted to the right cell number in the proper amount of fresh media. […] Antagonist activity is calculated by determining the decrease in dexamethasone-induced activity in response to compound treatment relative to samples that were treated with dexamethasone alone. […]
Quick rule for you: Transactivation A549 Cells GRAMMER Emax at 40% or higher means Satisfied, lower means Not satisfied.

{"Compound": "C[C@]12Cc3cnn(-c4ccc(F)cc4)c3C=C1CC[C@@H]2C(=O)N(CCc1ccccc1F)CC(O)C(F)(F)F (stereo partly shown) [Compound 93]", "Assayed target": "Glucocorticoid Receptor (Homo sapiens)", "Assigned category": "Satisfied"}

Hello, I need to know if CCN(CC(O)C(F)(F)F)C(=O)[C@H]1CCC2=Cc3c(cnn3-c3ccc(F)cc3)C[C@@]21C (stereo partly shown) has measured Transactivation A549 Cells GRAMMER Emax not below 40%. Thanks!
Satisfied

Is the recorded value of Transactivation A549 Cells GRAMMER Emax equal to or greater than 40% for this compound? CN(CC(O)C(F)(F)F)C(=O)[C@H]1CCC2=Cc3c(cnn3-c3ccccc3)C[C@@]21C (stereo partly shown) [Compound 74]
Not satisfied

Hi, just wondering whether CCCN(CC1CCCO1)C(=O)[C@H]1CCC2=Cc3c(cnn3-c3ccc(F)cc3)C[C@@]21C (stereo partly shown) shows Transactivation A549 Cells GRAMMER Emax of 40% or higher.
Not satisfied

Evaluate C[C@]12Cc3cnn(-c4ccc(F)cc4)c3C=C1CC[C@@H]2C(=O)N(CCc1ccccc1F)CC(O)C(F)(F)F (stereo partly shown) [Compound 84] : Transactivation A549 Cells GRAMMER Emax at minimum 40%?
Satisfied

Kindly determine if Transactivation A549 Cells GRAMMER Emax recorded for CN(CC(O)C(F)(F)F)C(=O)[C@H]1CCC2=Cc3c(cnn3-c3ccccc3)C[C@@]21C (stereo partly shown) [Compound 75] is above or exactly 40%.
Satisfied

----------
Assayed target: glucocorticoid receptor (GR) (Homo sapiens, UniProt P04150)
Method: Ligand binding assay (GR BIND), 3H-dexamethasone displacement in MDA-MB-453 cell lysate
Condition parameters: GR BIND Ki, Table 1
Recorded endpoint: Ki (nM)
Provide only the numeric value, understood in nM.

Worked examples follow.
{"Compound": "C[C@]12Cc3cnn(-c4ccc(F)cc4)c3C=C1CC[C@@H]2C(=O)N(CCO)Cc1cc(F)c(F)c(F)c1 [Compound 28]", "Assayed target": "glucocorticoid receptor (GR) (Homo sapiens, UniProt P04150)", "Ki (nM)": 8.9}
{"Compound": "CC(C)CN(CC(O)C(F)(F)F)C(=O)[C@H]1CCC2=Cc3c(cnn3-c3ccc(F)cc3)C[C@@]21C (some centres unmarked) [Compound 58]", "Assayed target": "glucocorticoid receptor (GR) (Homo sapiens, UniProt P04150)", "Ki (nM)": 7.3}
{"Compound": "CCCN(C(=O)[C@H]1CCC2=Cc3c(cnn3-c3ccc(F)cc3)C[C@@]21C)C(C)CC (some centres unmarked) [Compound 16]", "Assayed target": "glucocorticoid receptor (GR) (Homo sapiens, UniProt P04150)", "Ki (nM)": 2.8}
{"Compound": "CC(C)CN(C[C@@H](C)O)C(=O)[C@H]1CCC2=Cc3c(cnn3-c3ccc(F)cc3)C[C@@]21C [Compound 67]", "Assayed target": "glucocorticoid receptor (GR) (Homo sapiens, UniProt P04150)", "Ki (nM)": 5.1}
{"Compound": "C[C@]12Cc3cnn(-c4ccc(F)cc4)c3C=C1CC[C@@H]2C(=O)N1CCCC1CCc1ccccc1 (some centres unmarked) [Compound 19]", "Assayed target": "glucocorticoid receptor (GR) (Homo sapiens, UniProt P04150)", "Ki (nM)": 4.5}

// query Ki value for entry C[C@]12Cc3cnn(-c4ccc(F)cc4)c3C=C1CC[C@@H]2C(=O)N1CCC(S(=O)(=O)c2ccccc2)CC1 [Compound 51]
39.5

Would you mind telling me what Ki value was observed for C[C@]12Cc3cnn(-c4ccc(F)cc4)c3C=C1CC[C@@H]2C(=O)N(CCc1ccccc1F)CC(O)C(F)(F)F (some centres unmarked) [Compound 93] ?
1.1

Give the measured Ki of CC1CN(C(=O)[C@H]2CCC3=Cc4c(cnn4-c4ccc(F)cc4)C[C@@]32C)CC(C)O1 (some centres unmarked) [Compound 17] .
43.6

Quick one: Ki for CC(C)CCN(CCC(C)C)C(=O)[C@H]1CCC2=Cc3c(cnn3-c3ccc(F)cc3)C[C@@]21C [Compound 8] ?
1

Requested read-out: Ki. Entry: CCCN(CCO)C(=O)[C@H]1CCC2=Cc3c(cnn3-c3ccc(F)cc3)C[C@@]21C [Compound 37]
168

Ki lookup needed for C[C@]12Cc3cnn(-c4ccc(F)cc4)c3C=C1CC[C@@H]2C(=O)N(CCO)Cc1ccccc1CS(=O)(=O)c1ccccc1 [Compound 30] , thanks.
12.2

What Ki value was documented for this compound, C[C@]12Cc3cnn(-c4ccc(F)cc4)c3C=C1CC[C@@H]2C(=O)N(CCO)Cc1cc(F)cc(F)c1 [Compound 32] ?
11.1

Need Ki, item CN(CCC(F)(F)F)C(=O)[C@H]1CCC2=Cc3c(cnn3-c3ccc(F)cc3)C[C@@]21C [Compound 90]
17.3
